Please provide measured log10 of Ki for the entries that follow.
target: Neuronal acetylcholine receptor subunit alpha-7 (Rattus norvegicus); assay: Inhibition of [125I]alpha-bungarotoxin binding to rat nicotinic acetylcholine receptor alpha7
Sequence (Q05941 whole entry): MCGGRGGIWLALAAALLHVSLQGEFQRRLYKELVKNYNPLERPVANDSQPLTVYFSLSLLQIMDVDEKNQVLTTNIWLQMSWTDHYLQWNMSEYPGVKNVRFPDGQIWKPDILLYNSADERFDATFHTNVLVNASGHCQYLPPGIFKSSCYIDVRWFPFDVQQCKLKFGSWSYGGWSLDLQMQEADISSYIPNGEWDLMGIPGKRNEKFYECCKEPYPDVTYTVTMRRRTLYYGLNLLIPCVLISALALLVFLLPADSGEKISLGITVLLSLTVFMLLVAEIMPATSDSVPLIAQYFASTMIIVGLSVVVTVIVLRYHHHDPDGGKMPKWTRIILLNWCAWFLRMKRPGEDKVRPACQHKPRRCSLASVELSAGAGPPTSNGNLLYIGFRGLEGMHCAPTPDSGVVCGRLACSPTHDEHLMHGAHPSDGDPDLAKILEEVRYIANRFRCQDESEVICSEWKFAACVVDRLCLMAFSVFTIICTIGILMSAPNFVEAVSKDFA
Each number you see is log10 of Ki, and the unit inside the log is nM.

molecule	log10 of Ki
CC(=O)c1ccc(N2C[C@@]3(CN4CCC3CC4)OC2=O)s1	2.28
O=C1O[C@]2(CN3CCC2CC3)CN1c1ccc(Cl)s1	0.95
O=C1O[C@]2(CN3CCC2CC3)CN1c1nc2ccccc2s1	2.63
c1ccc2sc(CO[C@@H]3CN4CCC3CC4)cc2c1	1.11

Fill in the blank: the reported log10 of Ki of O=C(CC1CN2CCC1CC2)c1cc2ccccc2s1 (single isomer, unassigned; (+)) is ____. 1.81

----------
experiment: Maximum plasma concentration after peroral dosing of 1.0 mg/kg in rats (N=4); type: ADME, organism-based; set-up: dose 1 mg/kg, route oral; conditions: rat, po
quantity: Cmax
I'd appreciate it if you wrote the number followed by its unit.

Fill in the blank: the reported Cmax of O=C1O[C@]2(CN3CCC2CC3)CN1c1ccc(Cl)s1 is ____. 56 ng/mL

----------
target: Neuronal acetylcholine receptor; alpha4/beta2 (Rattus norvegicus, UniProt P09483+P12390); test: Inhibition of [3H]cytisine binding to nicotinic acetylcholine receptor alpha4-beta2 from rat cerebral cortex
Sequence (P09483 whole entry): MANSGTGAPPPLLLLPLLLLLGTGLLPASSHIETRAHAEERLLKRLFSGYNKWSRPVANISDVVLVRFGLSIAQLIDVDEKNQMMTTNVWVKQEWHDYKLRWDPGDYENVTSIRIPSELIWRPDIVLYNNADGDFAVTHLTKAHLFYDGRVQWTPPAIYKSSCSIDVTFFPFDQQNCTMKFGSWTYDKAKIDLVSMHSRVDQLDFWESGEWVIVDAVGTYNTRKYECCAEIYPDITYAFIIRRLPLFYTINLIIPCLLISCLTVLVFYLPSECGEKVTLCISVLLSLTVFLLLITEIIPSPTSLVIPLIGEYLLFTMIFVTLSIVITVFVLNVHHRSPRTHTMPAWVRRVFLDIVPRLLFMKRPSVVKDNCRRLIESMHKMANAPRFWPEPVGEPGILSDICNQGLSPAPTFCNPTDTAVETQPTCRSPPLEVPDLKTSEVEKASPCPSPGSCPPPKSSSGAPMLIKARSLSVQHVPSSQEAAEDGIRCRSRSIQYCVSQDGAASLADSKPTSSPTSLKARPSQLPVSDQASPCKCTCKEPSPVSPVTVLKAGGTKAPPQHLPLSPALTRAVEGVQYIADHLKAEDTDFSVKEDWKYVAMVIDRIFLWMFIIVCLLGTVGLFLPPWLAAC
Sequence (P12390 whole entry): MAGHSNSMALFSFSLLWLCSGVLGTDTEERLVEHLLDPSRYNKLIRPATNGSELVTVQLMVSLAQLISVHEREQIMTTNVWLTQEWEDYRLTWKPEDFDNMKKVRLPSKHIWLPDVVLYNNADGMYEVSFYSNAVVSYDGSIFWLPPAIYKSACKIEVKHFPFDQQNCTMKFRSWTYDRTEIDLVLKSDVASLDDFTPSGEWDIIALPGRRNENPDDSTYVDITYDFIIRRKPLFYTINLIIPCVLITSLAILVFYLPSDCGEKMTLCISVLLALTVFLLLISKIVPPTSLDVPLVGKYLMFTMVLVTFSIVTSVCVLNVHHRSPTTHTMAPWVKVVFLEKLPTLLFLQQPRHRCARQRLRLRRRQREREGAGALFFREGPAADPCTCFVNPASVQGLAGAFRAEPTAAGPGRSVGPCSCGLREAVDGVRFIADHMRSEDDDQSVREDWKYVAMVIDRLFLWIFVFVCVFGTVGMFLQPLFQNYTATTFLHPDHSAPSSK
Please provide measured Ki for the entries that follow.
I'd appreciate it if you wrote the number followed by its unit.

smiles structure	quantity	measured value
COc1ccc(/C=C2\CCCN=C2c2cccnc2)c(OC)c1	Ki	84 nM

Please provide the recorded Ki for O=C1O[C@]2(CN3CCC2CC3)CN1c1ccc(Cl)s1 , tested on Neuronal acetylcholine receptor; alpha4/beta2 (Rattus norvegicus, UniProt P09483+P12390). 1800 nM

----------
test: Oral bioavailability of compound after peroral dosing of 1.0 mg/kg in rats (N=4); assay type: ADME, organism-based; settings: rat, in vivo, read-out: BA
quantity: bioavailability (%)
Answers are plain numbers, in %.

Fill in the blank: the reported bioavailability of O=C1O[C@]2(CN3CCC2CC3)CN1c1ccc(Cl)s1 is ____. 52

----------
assay: Brain permeability is determined by ratio of concentration of compound in brain to that of in plasma (CB/CP) 2 hrs after oral dosing of 10.0 mg/kg (N=3); format: ADME, organism-based; parameters: dose 10 mg/kg, route oral; conditions: rat, read-out: Permeability
quantity: Kp at 2 h
Give bare numbers.

Fill in the blank: the reported Kp at 2 h of O=C1O[C@]2(CN3CCC2CC3)CN1c1ccc(Cl)s1 is ____. 59

----------
experiment: Oral bioavailability of compound after peroral dosing of 10.0 mg/kg in rats (N=4); type: ADME, organism-based; details: rat, in vivo, read-out: BA
quantity: bioavailability (%)
Numbers only, in %.

Reference set, count: 2
compound	unit symbol	bioavailability
COc1ccc(/C=C2\CCCN=C2c2cccnc2)c(OC)c1 [GTS-21]	%	14
O=C1NC[C@@]2(CN3CCC2CC3)O1	%	103

Fill in the blank: the reported bioavailability of O=C1O[C@]2(CN3CCC2CC3)CN1c1ccc(Cl)s1 is ____. 108

----------
test: Area under plasma concentration time curve 24 hours after peroral dosing of 10.0 mg/kg (AUC) in rats (N=4); assay type: ADME, organism-based; parameters: dose 10 mg/kg, route oral; settings: rat, po
quantity: AUC at 24 h (ng·h/mL)
Numbers only, in ng·h/mL.

Reference set, count: 2
compound	unit symbol	measured value
COc1ccc(/C=C2\CCCN=C2c2cccnc2)c(OC)c1 [GTS-21]	ng·h/mL	453
O=C1O[C@]2(CN3CCC2CC3)CN1c1ccc(Cl)s1	ng·h/mL	4640

Proceeding to the next compound to report its AUC at 24 h.
Fill in the blank: the reported AUC at 24 h of O=C1NC[C@@]2(CN3CCC2CC3)O1 is ____. 5390
